- EXPERIMENTAL_SYSTEM: ecto-5′-nucleotidase (Nt5e) (Streptococcus sanguinis)
- Construct: native enzyme on whole cells of S. sanguinis strain 133-79
- Sequence (I3RY26 entry or part of it): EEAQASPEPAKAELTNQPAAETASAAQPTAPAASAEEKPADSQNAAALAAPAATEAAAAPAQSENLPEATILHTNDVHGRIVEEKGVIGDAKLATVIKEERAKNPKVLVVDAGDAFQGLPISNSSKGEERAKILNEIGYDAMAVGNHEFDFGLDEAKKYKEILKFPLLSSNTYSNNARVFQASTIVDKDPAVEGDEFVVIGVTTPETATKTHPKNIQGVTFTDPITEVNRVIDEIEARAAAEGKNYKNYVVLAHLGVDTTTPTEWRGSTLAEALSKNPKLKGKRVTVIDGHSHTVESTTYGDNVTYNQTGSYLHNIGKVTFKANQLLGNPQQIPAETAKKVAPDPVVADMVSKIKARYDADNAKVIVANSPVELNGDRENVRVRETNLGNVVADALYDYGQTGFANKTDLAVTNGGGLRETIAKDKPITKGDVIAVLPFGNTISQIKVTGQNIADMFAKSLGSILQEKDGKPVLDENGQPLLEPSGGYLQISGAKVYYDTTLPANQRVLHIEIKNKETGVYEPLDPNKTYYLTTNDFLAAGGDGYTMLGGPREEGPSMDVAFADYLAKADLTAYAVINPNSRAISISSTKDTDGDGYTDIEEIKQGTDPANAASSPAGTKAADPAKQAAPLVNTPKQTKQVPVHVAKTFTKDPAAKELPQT
- ASSAY_INFO: whole-cell AMPase activity (phosphate release) dose-inhibition and Michaelis-Menten analysis
QUANTITY_NAME: IC50 (µM)
Express your answer in µM, writing the number without its unit.

Can you look up the measured IC50 of Nc1ncnc2c1ncn2[C@@H]1O[C@H](COP(=O)(O)CP(=O)(O)O)[C@@H](O)[C@H]1O for me?
8.8
